experiment: ovarian cancer cell viability with rucaparib, profiling panel, oncology-focused library, rucaparib conditional (AID 1508598); conditions: patient-derived ovarian cancer cells, CellTiter-Glo viability, 144 h; at 0.0195 µM; OCI-P5x cells; without rucaparib
Calls of active or inactive are those of the source.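 How the source made its calls: active means normalized viability below 100% at a tested concentration; inactive means the rest.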
// classify into yes = active, no = inactive

>>> cat("NC(=O)c1ccc(-c2nc(-c3ccc4c(c3)OCO4)c(-c3ccccn3)[nH]2)cc1")
"no"
>>> cat("O=c1[nH]cnc2[nH]ncc12")
"no"
>>> cat("CN(CCOc1ccc(CC2SC(=O)NC2=O)cc1)c1ccccn1 (stereo not drawn)")
"no"

Identify the outcome logged in this assay for the compound shown: CCN(CC)C(=S)SSC(=S)N(CC)CC
yes

// next record S=c1nc[nH]c2nc[nH]c12
yes

// next record O=c1[nH]cc(F)c(=O)[nH]1
no

// next record Cc1ccc(-c2cc(C(F)(F)F)nn2-c2ccc(S(N)(=O)=O)cc2)cc1
yes

// next record O=C1CCC(N2C(=O)c3ccccc3C2=O)C(=O)N1 (stereo not drawn)
no

====

system: R275C/beta2Delta; experiment: modulators of BK channel variants, profiling panel, selectivity assay, cell-based, U2OS BacMam, thallium flux, beta subunits (AID 1259406); details: at 30 µM;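 further: initial slope of Thallos dye fluorescence rise after thallium is added; log ratio against the mean of 0.3% DMSO vehicle wells on the same plate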
Activity calls are given as the source filed them.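 Rule for the calls: active = thallium flux through the channel raised or lowered by more than 3 SD from vehicle-only wells, actives on both sides; inactive = the rest.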
// classify into active, inactive

>>> cat("Nc1ccc(S(=O)(=O)c2ccc(N)cc2)cc1")
"inactive"
>>> cat("CN1C(C(=O)Nc2ccccn2)=C(O)c2ccccc2S1(=O)=O")
"inactive"
>>> cat("OC(CCN1CCCCC1)(c1ccccc1)C1CCCCC1 (stereo unspecified)")
"inactive"
>>> cat("CCN(CC)CCOC(=O)C1(C2CCCCC2)CCCCC1")
"inactive"
>>> cat("CCOc1ccc2ccccc2c1C(=O)N[C@@H]1C(=O)N2[C@@H]1SC(C)(C)[C@@H]2C(=O)O")
"inactive"
>>> cat("CCCN(CCC)S(=O)(=O)c1ccc(C(=O)O)cc1")
"inactive"

Identify the outcome logged in this assay for the compound shown: CCCCC1=NC2(CCCC2)C(=O)N1Cc1ccc(-c2ccccc2-c2nn[nH]n2)cc1
active

// next record CC(C)C1CCC(C(=O)N[C@H](Cc2ccccc2)C(=O)O)CC1 (stereo partly specified)
inactive

// next record O=C1c2c(O)ccc(O)c2C(=O)c2c(NCCNCCO)ccc(NCCNCCO)c21
inactive

// next record Cc1onc(-c2ccccc2)c1-c1ccc(S(N)(=O)=O)cc1
inactive

// next record CCN(CC)CC(=O)Nc1c(C)cccc1C
inactive

// next record CC(=O)OCC(=O)[C@@]12OC(C)(C)O[C@@H]1C[C@H]1[C@@H]3C[C@H](F)C4=CC(=O)C=C[C@]4(C)[C@@]3(F)[C@@H](O)C[C@@]12C
inactive

====

biological target: Cellular tumor antigen p53 (Homo sapiens); assay: kinase inhibitors altering GFP-p53 stability in HPV16-positive cells, imaging, known kinase inhibitor set, EGFP/DsRed ratio (AID 1053116); settings: active compounds read high;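 further: cells exposed to compounds for 24 h at 37 °C before reading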
Below: a set of entries, each annotated with reported EGFP/DsRed ratio.
# respond with the number and nothing more

>>> endpoint_value("Cc1ccc(Nc2ccnc(Nc3cccc(C(N)=O)c3)n2)cc1O")
0.0254
>>> endpoint_value("Cc1cc(C)c2c(n1)sc1c(N)ncnc12")
0.0145
>>> endpoint_value("CS(=O)(=O)CCNCc1nc(-c2ccc3ncnc(Nc4ccc(F)c(Cl)c4)c3c2)cs1")
0.211
>>> endpoint_value("FC(F)(F)c1cccc(Nc2nccc(-c3cnn4nc(-c5ccccc5)ccc34)n2)c1")
0.154
>>> endpoint_value("COc1ccc(-c2nn3ncccc3c2-c2ccnc(Nc3ccc4c(c3)OCCO4)n2)cc1")
0.0413

Give the measured EGFP/DsRed ratio of Nc1nccc(-c2c(-c3ccc(F)cc3)ncn2C2CCC(O)CC2)n1 (configuration not stated) .
0.124

// next record NS(=O)(=O)c1ccc(N=Nc2c(=O)[nH]c3ccc4[nH]cccc4c23)cc1
0.0128

// next record Fc1ccc(-c2cc(C3CNNC3c3ccccn3)ccn2)cc1 (configuration not stated)
0.0511

// next record Cn1cc(C2=C(c3c4n(c5ccccc35)CCC(CN)C4)C(=O)NC2=O)c2ccccc21 (configuration not stated)
0.0193

// next record CCN1CCC(C(=O)NC2NNC3NNC(c4cccc(F)c4F)CC32)CC1 (configuration not stated)
0.326

// next record O=c1c(Oc2ccc(F)cc2F)cc2cnc(NC3CCOCC3)nc2n1C1CCS(=O)(=O)CC1
0.101

// next record COc1ccc(C2=C(N3CCc4ccccc43)C(=O)NC2=O)cc1
0.229
